measurementDescription: 384-well plate pilot, post-Golgi transport modulator project, inhibition of yeast transport mutant growth (AID 636)
reportedConditions: absorbance 615 nm, about 18 h, stronger effect = higher value
readoutType: inhibition (%)
Just the number in %, nothing appended.

Field: example entries. Status: answers known.
{"molecule": "Cc1nccn1CCCN1C(=O)OC2(CCCCC2)C1(C)O (configuration not stated)", "inhibition [%]": -7.53}
{"molecule": "O=C(CSc1nc2ccccc2o1)NC(=O)NCc1ccco1", "inhibition [%]": -3.51}
{"molecule": "COC(=O)c1c(NC(=O)CSc2nnnn2C)sc(C)c1C", "inhibition [%]": 0.14}

inhibition measured on COC(=O)c1cc(S(=O)(=O)N2CCOCC2)c(N2CCOCC2)cc1N1CCOCC1 = -0.14

----------
measurementDescription: reversal of MRP1-mediated doxorubicin resistance, pilot screen, H69AR cells, doxorubicin co-treatment (AID 601)
reportedConditions: H69AR cells + 2 uM doxorubicin, CellTiter-Glo, 72 h; measured here: viability with 2 uM doxorubicin; at 10 µM; stronger effect = lower value
Could you mark each record yes (1) if its viability falls strictly under 90%, and no (0) if it equals or exceeds it?

Answered cases to consult:
{"molecule": "O=S(=O)(NCc1cn2ccccc2n1)c1cc(F)ccc1F", "classLabel": "yes (1)"}
{"molecule": "CCC(=O)Oc1ccc(C(CC)C(CC)c2ccc(OC(=O)CC)cc2)cc1 (stereo unspecified)", "classLabel": "no (0)"}
{"molecule": "CCCCNC(=O)c1nnn(-c2ccccc2)c1N", "classLabel": "no (0)"}
{"molecule": "COc1ccc(N2CCN(C(=O)CSc3ccccc3N)CC2)cc1", "classLabel": "no (0)"}
{"molecule": "Cn1nc(-c2ccc(N3CCCCC3)c(NC(=O)c3ccco3)c2)c2ccccc2c1=O", "classLabel": "yes (1)"}

Now consider a different molecule.
In the record for COC(=O)c1ccccc1NC(=O)Nc1cc(C)cc(C)n1 , is viability less than 90%? no (0)

----------
measurementDescription: reversal of MRP1-mediated doxorubicin resistance, pilot screen, H69AR cells, doxorubicin co-treatment (AID 601)
reportedConditions: H69AR cells, CellTiter-Glo, 72 h; compound alone cytotoxicity; at 10 µM
Could you mark each record yes (1) if its viability falls strictly under 90%, and no (0) if it equals or exceeds it?

Answered cases to consult:
{"molecule": "O=C(COC(=O)Cc1cccc(C(F)(F)F)c1)NCC1CCCO1 (configuration not stated)", "classLabel": "no (0)"}
{"molecule": "Cc1cccc2c1nc(-c1ccccc1)n1cnnc21", "classLabel": "yes (1)"}

Now consider a different molecule.
In the record for C=CCn1c(SCC(=O)Nc2ccc3c(c2)OCO3)nc2ccccc2c1=O , is viability less than 90%? yes (1)

----------
measurementDescription: reducers of endogenous Her2 protein level, primary screen, SKBR3 breast tumor cells, AlphaScreen, ATP viability (AID 461);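 also: percent of carrier control wells set as 100% viability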
reportedConditions: 18-24 h, measured here: SKBR3 viability, ATP luminescence, at 10 µM
readoutType: viability (%)
Just the number in %, nothing appended.

{"compound": "Cc1ccc(-c2cn3cccnc3n2)cc1NC(=O)c1ccc(Br)o1", "viability [%]": 95.5}
{"compound": "Cc1ccc(-c2nc3cc(N)ccc3o2)cc1", "viability [%]": 104}
{"compound": "COc1cccc(OCCSc2nnc3sc4ccccc4n23)c1", "viability [%]": 86}

viability measured on O=C(Cn1ccc2ccccc2c1=O)NCCC(=O)N1CCN(C2CCCCC2)CC1 = 99.5

viability measured on COc1ccc(CCNC(=O)CN(c2ccccc2OC)S(C)(=O)=O)cc1 = 112

viability measured on CC(C)(C)NC(=O)C(c1ccco1)N(C(=O)Cn1nnc(-c2ccc(F)cc2)n1)c1ccccc1 (stereo unspecified) = 89.5

viability measured on c1ccc2c(c1)nc(-c1ccncc1)n1nnnc21 = 96.5

viability measured on CS(=O)(=O)N(CC(=O)Nc1cccc(F)c1)Cc1ccccc1 = 78.5

viability measured on Cc1ccc(S(=O)(=O)CCC(=O)Nc2ccc3c(c2)OCO3)cc1 = 96.5

viability measured on CC1Cc2ccccc2N1Cc1cc(=O)n2ccsc2n1 (stereo unspecified) = 102

viability measured on Cc1ccc2nc(SC(C)C(=O)N3CCCC3)[nH]c2c1 (stereo unspecified) = 87.5

----------
measurementDescription: reversal of MRP1-mediated doxorubicin resistance, pilot screen, H69AR cells, doxorubicin co-treatment (AID 601)
reportedConditions: H69AR cells + 2 uM doxorubicin, CellTiter-Glo, 72 h; measured here: viability with 2 uM doxorubicin; at 10 µM; stronger effect = lower value
Could you mark each record T if its viability falls strictly under 90%, and F if it equals or exceeds it?

Answered cases to consult:
{"compound": "CCn1nnnc1SCC(=O)N1CCOCC1", "classLabel": "T"}
{"compound": "CCCN(CCO)Cc1cccc(Br)c1", "classLabel": "F"}
{"compound": "CCOC(=O)C1CCN(Cc2ccc(C(=O)OC)cc2)CC1", "classLabel": "T"}

In the record for COc1ccc(C(=O)N2CCN(C3CCCCC3)CC2)c(OC)c1 , is viability less than 90%? F

In the record for CC(C)CN(CC(C)C)c1nc(N)c(C#N)c(CC#N)c1C#N , is viability less than 90%? T

In the record for CS(=O)(=O)N(CC(=O)NCc1ccncc1)Cc1ccc(Cl)cc1 , is viability less than 90%? F

In the record for CCOC(=O)C1CCN(C(=O)COc2ccc(S(=O)(=O)NC(C)C)cc2Cl)CC1 , is viability less than 90%? F

In the record for O=C(O)CCc1ccc(-c2ccc(F)cc2)n1CCC(=O)O , is viability less than 90%? F

In the record for COc1ccc(Cc2nc(-c3ccc(Br)cc3)no2)cc1 , is viability less than 90%? F

In the record for O=C(CCNC(=O)Cn1ccc2ccccc2c1=O)NCCN1CCN(c2ccccc2F)CC1 , is viability less than 90%? T

In the record for Cc1nc(NC2=NCN(CCc3ccccc3)CN2)nc2c(C)cccc12 , is viability less than 90%? F

In the record for COc1ccc(Cn2nnnc2CN2CCOCC2)cc1 , is viability less than 90%? F

In the record for COc1ccc(CN(C(=O)CSc2nnc(-c3ccccc3F)o2)c2ccc(F)cc2)cc1 , is viability less than 90%? F

----------
measurementDescription: SK-BR-3 cell growth inhibitors, pilot screen, 24 h, human (AID 572);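 also: compound exposure lasted between 18 and 24 h rather than exactly 24 h; 100% = carrier-treated control wells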
reportedConditions: SK-BR-3 viability, CellTiter-Glo luminescence, at 10 µM, stronger effect = lower value
Overview of reported viability across a group of molecules:
Just the number in %, nothing appended.

Field: example entries. Status: answers known.
{"molecule": "COc1cccc(CN=CC2=C(O)CC(C)(C)CC2=O)c1OC", "viability / %": 106}
{"molecule": "COc1ccc(OC)c(NC(=O)C23CCC(C)(C(=O)C2)C3(C)C)c1 (stereo unspecified)", "viability / %": 72}
{"molecule": "CCn1c(C(Cc2ccccc2)NC(=O)COC)nc2ccccc21 (stereo unspecified)", "viability / %": 102}

viability measured on O=C(CC(SCCO)c1ccc2c(c1)OCO2)c1ccco1 (stereo unspecified) = 77.5

viability measured on CCCN(CCC)S(=O)(=O)c1ccc(C(=O)O)cc1 = 99

viability measured on CCSc1nc(N)c(C#N)c(-c2ccccc2Cl)c1C#N = 105

viability measured on COC(=O)CCC(=O)CN = 111

viability measured on O=C(c1ccco1)N1CCN(c2c(-c3ccccc3)c3cc(Cl)ccc3[nH]c2=O)CC1 = 94

viability measured on Cc1ccc(F)cc1NC(=O)C1CCCN(c2ncccn2)C1 (stereo unspecified) = 100

viability measured on Cc1cc(Cl)ccc1NC(=O)CSc1nnc(Cc2cccs2)n1Cc1ccco1 = 77.5

viability measured on CCOC(=O)C1(c2ccccc2)NC(c2ccc(N(C)C)cc2)C2C(=O)N(C)C(=O)C21 (stereo unspecified) = 82

----------
measurementDescription: growth suppression of yeast trafficking mutant, preliminary HTS, modulators of trafficking downstream of Golgi apparatus project, 1536-format plate, OD 615 nm (AID 637)
reportedConditions: yeast transport mutant growth, absorbance 615 nm, 18 h; stronger effect = higher value
Overview of reported inhibition across a group of molecules:
Just the number in %, nothing appended.

Field: example entries. Status: answers known.
{"molecule": "CCOC(=O)C1CCCN(S(=O)(=O)c2cccs2)C1 (stereo unspecified)", "readoutType": "inhibition", "unitSymbol": "%", "resultNumber": -6.03}
{"molecule": "NC(=O)c1ccsc1NC(=O)COC(=O)Cc1ccsc1", "readoutType": "inhibition", "unitSymbol": "%", "resultNumber": 1.27}
{"molecule": "O=c1c2ccccc2[nH]c(=S)n1CCN1CCC(=C(c2ccc(F)cc2)c2ccc(F)cc2)CC1", "readoutType": "inhibition", "unitSymbol": "%", "resultNumber": 71}

inhibition measured on CCC(=O)Oc1ccc(C(CC)C(CC)c2ccc(OC(=O)CC)cc2)cc1 (stereo unspecified) = -1.33

inhibition measured on CCOc1ccc(NC(=O)Cn2nnc(-c3ccccc3F)n2)cc1 = -2.3

inhibition measured on Cc1cc(NC(=O)CSc2nc(C3CC3)nc3sc4c(c23)CCC(C)C4)no1 (stereo unspecified) = -0.18

inhibition measured on CCOc1cc(C2NC(=O)N(C)C(C)=C2C(=O)OC)cc(Br)c1O (stereo unspecified) = 4.44
